Source of measurements: patent US10428080B2

target: IKKε (Homo sapiens, UniProt Q14164); assay: IKKe Biochemical Assay; settings: read-out: IKKε IC50
Sequence (Q14164 whole entry, species assumed): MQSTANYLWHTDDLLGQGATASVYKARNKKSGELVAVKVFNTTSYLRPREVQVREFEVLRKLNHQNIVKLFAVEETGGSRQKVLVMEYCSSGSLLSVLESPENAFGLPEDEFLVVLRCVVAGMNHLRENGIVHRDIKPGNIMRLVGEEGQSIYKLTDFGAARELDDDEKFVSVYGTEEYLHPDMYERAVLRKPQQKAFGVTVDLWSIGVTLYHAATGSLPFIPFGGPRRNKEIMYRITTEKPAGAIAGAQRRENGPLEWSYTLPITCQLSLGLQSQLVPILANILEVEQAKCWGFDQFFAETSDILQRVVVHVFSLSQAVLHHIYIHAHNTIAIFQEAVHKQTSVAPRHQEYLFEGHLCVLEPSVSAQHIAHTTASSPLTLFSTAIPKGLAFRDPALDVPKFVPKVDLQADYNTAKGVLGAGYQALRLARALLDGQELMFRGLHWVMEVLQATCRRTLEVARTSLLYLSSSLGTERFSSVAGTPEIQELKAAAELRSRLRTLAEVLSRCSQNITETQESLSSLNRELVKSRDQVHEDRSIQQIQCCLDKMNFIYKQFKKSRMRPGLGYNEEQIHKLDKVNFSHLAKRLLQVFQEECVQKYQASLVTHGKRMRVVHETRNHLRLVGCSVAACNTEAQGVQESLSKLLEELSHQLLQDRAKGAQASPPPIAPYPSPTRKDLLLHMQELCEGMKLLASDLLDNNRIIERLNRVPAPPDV
pIC50: −log10 of the molar value. Counter-ions that a name gives are not always drawn.
Quantity name: pIC50

• CNC(=O)c1ccc(-c2cc3nccc(-c4ccc(OC5CCOCC5)c(C#N)c4)c3o2)c(OC)c1 = > 7.00
• COc1cc(C(=O)N(C)C)ncc1-c1cc2nccc(-c3cnc(OC4CCOCC4)c(C#N)c3)c2o1 = > 7.00
• COc1cc(C(=O)N2CC3COCC3C2)ccc1-c1cc2nccc(-c3ccc(OC4CCOCC4)c(C#N)c3)c2o1 (stereo not drawn) = > 7.00
• COc1cc(C(=O)N(C)C)ccc1-c1cc2nccc(-c3ccc(OC4[C@H](C)COC[C@H]4C)c(C#N)c3)c2o1 (single isomer, unassigned) = > 7.00
• COc1cc(C(=O)N2CCC(O)C2)ccc1-c1cc2nccc(-c3ccc(NC4CCOCC4)c(C#N)c3)c2o1 (stereo not drawn) = > 7.00
• COc1cc(C(=O)NC2CCN(C)CC2O)ccc1-c1cc2nccc(-c3ccc(OC4CCOCC4)c(C#N)c3)c2o1 (stereo not drawn) = > 7.00
• COc1cc(C(=O)NC(C)(C)CCN(C)C)ncc1-c1cc2nccc(-c3ccc(NC4CCOCC4)c(C#N)c3)c2o1 = > 7.00
• COc1cc(C(=O)N(C)C)cnc1-c1cc2ncc(OC)c(-c3ccc(OC4CCOCC4)c(C#N)n3)c2o1 [Compound 338, hydrochloride] = 6.00 to 7.00
• CN(C)C(=O)c1ccc(-c2cc3nccc(-c4cc(F)c(N(C)C5CCOCC5)c(C#N)c4)c3o2)cc1 [Compound 225, hydrochloride] = 6.00 to 7.00
• COc1cc(C(=O)N2CCCCN2C)ccc1-c1cc2nccc(-c3ccc(OC4CCOCC4)c(C#N)c3)c2o1 = > 7.00
• COc1cc(C(=O)NCC2(F)COC2)ccc1-c1cc2nccc(-c3ccc(OC4CCOCC4)c(C#N)c3)c2o1 = > 7.00
• COc1cc(C(=O)N2C[C@H]3C[C@@H](O)C[C@H]3C2)ccc1-c1cc2nccc(-c3ccc(NC4CCOCC4)c(C#N)c3)c2o1 = > 7.00
• COc1cc(C(=O)N(C)C)ccc1-c1cc2nccc(-c3ccc(OCC4CCOC4)c(C#N)c3)c2o1 (stereo not drawn) = > 7.00
• COc1cc(C(=O)N(C)CCO)cnc1-c1cc2ncc(Cl)c(-c3ccc(OC4CCOCC4)c(C#N)c3)c2o1 [Compound 342, hydrochloride] = 5.30 to 6.00
• COc1cc(C(=O)N(C)C)ccc1-c1cc2ncc(F)c(-c3ccc(OC4CCOCC4)c(C#N)c3)c2o1 = > 7.00
• COc1cc(C(=O)N2CC3CCC2CN3C)ccc1-c1cc2nccc(-c3ccc(NC4CCOCC4)c(C#N)c3)c2o1 (stereo not drawn) = > 7.00
• COc1cc(C(=O)NC2CN(CC(C)C)C2)ccc1-c1cc2nccc(-c3ccc(OC4CCOCC4)c(C#N)c3)c2o1 = > 7.00
• COc1cc(C(=O)N(C)CCO)ccc1-c1cc2ncc(C3CC3)c(-c3ccc(OC4CCOCC4)c(C#N)c3)c2o1 = < 5.30
• COc1cc(C(=O)N(C)C)ccc1-c1cc2nccc(-c3ccc(OC4CCOC4)c(C#N)c3)c2o1 (stereo not drawn) = > 7.00
• COc1cc(C(=O)N(C)C)ncc1-c1cc2nccc(-c3ccc(NC4CCN(C)C4)c(C#N)c3)c2o1 (stereo not drawn) = > 7.00
• CC1CC(Oc2ccc(-c3ccnc4cc(-c5ccc(C(=O)N(C)C)cc5)oc34)cc2C#N)CC(C)O1 (stereo not drawn) = < 5.30
• CN(C)C(=O)c1ccc(-c2cc3nccc(-c4ccc(OC5CCNCC5)c(C#N)c4)c3o2)cc1 [Compound 185, hydrochloride] = 6.00 to 7.00
• COc1cc(C(=O)N(C)C)ccc1-c1cc2nccc(-c3ccc(C(C)(C)N4CCOCC4)c(C#N)c3)c2o1 [Compound 235, hydrochloride] = 6.00 to 7.00
• COc1cc(C(=O)N[C@@H]2CC[C@@H]3CN(C)C[C@@H]32)ccc1-c1cc2nccc(-c3ccc(OC4CCOCC4)c(C#N)c3)c2o1 = > 7.00
• COc1cc(C(=O)N2CCCC2)cnc1-c1cc2nccc(-c3ccc(OC4CCOCC4)c(C#N)c3)c2o1 [Compound 416, hydrochloride] = > 7.00
• COc1cc(C(=O)NC2CN3CCC2CC3)cnc1-c1cc2nccc(-c3ccc(N4CC[C@H](F)C4)c(C#N)c3)c2o1 (stereo partly drawn) [Compound 441] = > 7.00
• COc1cc(C(=O)N2CCN(C)CC2)cnc1-c1cc2nccc(-c3ccc(N4CC[C@@H](F)C4)c(C#N)c3)c2o1 = > 7.00
